B1: ZNF232 (parent)
chain: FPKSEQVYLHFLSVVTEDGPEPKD

- Variants of: B1
- Protocol: protein stability index of a GFP-peptide fusion (GPS, HEK-293T) (PSI 1-6); higher = more stable;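 note: lentivirally expressed fusions sorted by FACS into six bins by GFP to DsRed ratio, PSI derived from sequencing read proportions per bin multiplied by bin number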
- Settings: c terminus: a fixed tail appended

Variant label: P2W
protein stability index: 2.44

Variant label: P22C
protein stability index: 1.34

Variant label: F11W
protein stability index: 2.08

Variant label: G19H
protein stability index: 2.32

Variant label: E17F
protein stability index: 2.38

Variant label: E21L
protein stability index: 1.91

Variant label: V15F
protein stability index: 2.44

Variant label: P22H
protein stability index: 2.39

Variant label: P2V
protein stability index: 2.26

Variant label: K23M
protein stability index: 2.22

Variant label: P2T
protein stability index: 2.68

Variant label: T16I
protein stability index: 2.19

Variant label: L12H
protein stability index: 3.49

Variant label: D24R
protein stability index: 1.83

Variant label: E21S
protein stability index: 2.26

Variant label: H10I
protein stability index: 1.26

Variant label: L12I
protein stability index: 1.97

Variant label: E21Q
protein stability index: 1.71

Variant label: S4H
protein stability index: 2.26

Variant label: S4M
protein stability index: 2.35

Variant label: S13F
protein stability index: 1.66

Variant label: K3Y
protein stability index: 2.02

Variant label: S4V
protein stability index: 1.61

Variant label: V15R
protein stability index: 3.32

Variant label: G19R
protein stability index: 2.45

Variant label: H10S
protein stability index: 1.95

Variant label: D24Y
protein stability index: 2.58

Variant label: P2N
protein stability index: 2.8

Variant label: E17M
protein stability index: 2.51

Variant label: V15P
protein stability index: 2.08

Variant label: E5Y
protein stability index: 1.19

Variant label: V15H
protein stability index: 2.4

Variant label: Q6F
protein stability index: 1.9

Variant label: S13Y
protein stability index: 3.15

Variant label: P2Y
protein stability index: 2.89

Variant label: S4A
protein stability index: 1.77

Variant label: P22F
protein stability index: 1.67

Variant label: P20V
protein stability index: 1.76

Variant label: E17W
protein stability index: 4.03
